Attribution: BindingDB's records for PubMed 35598527

Procedure summary: Antagonist activity at pig cerebral cortex CCK2 […] by Packbard-Cobra counter analysis
pIC50: −log10 of the molar value.
Recorded endpoint: pIC50

compound="C#CCOC1OC(=O)C(Cl)=C1N(CC(C)C)C1CCCCC1 (configuration not stated)" test_value=7.10
compound="CC(C)CNC1=C(Cl)C(=O)OC1OCc1ccccc1 (configuration not stated)" test_value=7.07
